Tested on: Glycine max
PROTOCOL_SUMMARY: Inhibition of soybean lipoxygenase assessed as conversion of sodium linoleate to 13-hydroperoxylinoleate at 100 uM
Decision: inhibition compared against 30%; not below it gives criterion met, below it gives criterion not met.

Solved cases (4 shown):
SMILES_ENTRY	GROUP_LABEL
COc1ccc(NC(=O)c2cn(C(=O)/C=C/c3cc(OC)c(OC)cc3OC)c3ccccc23)c(OC)c1	criterion met
COc1cc(C)c(/C=C/C(C)=C/C=C/C(C)=C/C(=O)O)c(C)c1C	criterion not met
COc1cc(NC(=O)c2cn(C(=O)CCC(=O)O)c3ccccc23)cc(OC)c1OC	criterion not met
O=C(O)/C=C/C(=O)n1cc(C(=O)Nc2cccc([N+](=O)[O-])c2)c2ccccc21	criterion not met

Kindly review the next compound as well.
Has `COc1cc(OC)c(OC)cc1/C=C/C(=O)n1cc(/C=C/C(=O)OC(C)(C)C)c2ccccc21` a recorded inhibition greater than or equal to 30%?
criterion met

----------
PROTOCOL_SUMMARY: Antioxidant activity assessed as inhibition of AAPH-induced lipid peroxidation at 100 uM
Assay type: functional
REPORTED_ENDPOINT: inhibition (%)
Value expressed in %; do not type the unit.

See these solved cases before continuing.
MOLECULE	inhibition / %
COc1cc(NC(=O)c2cn(C(=O)/C=C/C(=O)O)c3ccccc23)cc(OC)c1OC	64
COc1ccc(NC(=O)c2cn(C(=O)/C=C/C(=O)OC(C)(C)C)c3ccccc23)c(OC)c1	68
COc1ccc(NC(=O)c2cn(C(=O)/C=C/c3cc(OC)c(OC)cc3OC)c3ccccc23)c(OC)c1	42
COc1cc(OC)c(C2CC(=O)n3c2c(/C=C/C(=O)O)c2ccccc23)cc1OC (stereo not given)	57

In plain terms, `COc1cc(OC)c(OC)cc1/C=C/C(=O)n1ccc(/C(C)=C/C(=O)OC(C)(C)C)c1` has a documented inhibition of 46
